Quick reference: protein stability index of the listed items.
B1: DVL3 (parent)
chain: SDVVDWLYHNVEGFTDRREARKYA

Variants of: B1
measurementNotes: protein stability index of a GFP-peptide fusion (GPS, HEK-293T) (PSI 1-6); higher = more stable;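 note: lentivirally expressed fusions sorted by FACS into six bins by GFP to DsRed ratio, PSI derived from sequencing read proportions per bin multiplied by bin number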
conditionDescription: c terminus: a fixed tail appended
measuredQuantity: protein stability index

mutationcode=D5I quantitativereadout=1.82
mutationcode=G13D quantitativereadout=3.66
mutationcode=V11R quantitativereadout=3.1
mutationcode=D16L quantitativereadout=2.07
mutationcode=R18V quantitativereadout=3.53
mutationcode=D16K quantitativereadout=2.29
mutationcode=V3A quantitativereadout=3.98
mutationcode=L7K quantitativereadout=4.64
mutationcode=A20M quantitativereadout=3.28
mutationcode=F14T quantitativereadout=3.87
mutationcode=G13E quantitativereadout=3.3
mutationcode=N10D quantitativereadout=4.09
mutationcode=D2Y quantitativereadout=2.26
mutationcode=R18M quantitativereadout=2.4
mutationcode=H9N quantitativereadout=3.83
mutationcode=N10Y quantitativereadout=2.01
mutationcode=F14I quantitativereadout=3.97
mutationcode=A20R quantitativereadout=3.15
mutationcode=G13R quantitativereadout=3.93
mutationcode=F14L quantitativereadout=3.11
mutationcode=R18L quantitativereadout=2.04
mutationcode=N10M quantitativereadout=1.94
